assay: coupled detection enzyme interference, dose response, artefact control for MgcRacGAP inhibitor project, biochemical, coupled enzyme counter-screen (AID 624351); conditions: ADP Hunter coupled enzyme counter-screen, fluorescence, no MgcRacGAP; series mostly up to 80 µM;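 also: signal is the ADP detection kit reading of free GDP without any GAP enzyme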
In all, about 2,400 compounds went through this assay and about 1,400 (58%) were called active.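 The calls were made as follows: active = inhibition of 30% or more at any tested dose; inconclusive = primary hits over the limit that were never retested; inactive = the rest.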 The set was probably picked from earlier hits. This is one part of the list.
A correct response names exactly one class from active, inactive

Reference set, count: 2
{"compound": "COc1cc(/C=N/NC(=O)c2nc(C)cc(C)n2)ccc1O", "label_value": "active"}
{"compound": "N/C(=N\\OC(=O)N1c2ccccc2Sc2ccccc21)c1ccccc1", "label_value": "inactive"}

stdin: Which result was noted for this compound in the test: Cc1c(O)ccc(/C(Cc2ccc3ccccc3n2)=N\O)c1O
stdout: active

stdin: What call does the record list for Cc1sc2ncnc(N/N=C/c3ccc(O)cc3)c2c1C ?
stdout: active

stdin: What is the recorded call for this compound in the test? CC1CCC/C(=C\c2ccc(O)cc2)C1=O (stereo unspecified)
stdout: active

stdin: # fetch the recorded call for O=C1/C(=C/c2ccc(O)c(O)c2)Oc2cc(O)ccc21 here
stdout: active

stdin: # outcome recorded in this test, key = Cc1cccc(/C(N)=N/OC(=O)N2c3ccccc3Sc3ccccc32)c1
stdout: inactive

----------
experiment: coupled detection enzyme interference, dose response, artefact control for MgcRacGAP inhibitor project, biochemical, coupled enzyme counter-screen (AID 624351); conditions: ADP Hunter coupled enzyme counter-screen, fluorescence, no MgcRacGAP; series mostly up to 80 µM;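 also: signal is the ADP detection kit reading of free GDP without any GAP enzyme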
About 1,400 (58%) of roughly 2,400 compounds were called active.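 Rule for the calls: active = inhibition of 30% or more at any tested dose; inconclusive = primary hits over the limit that were never retested; inactive = the rest.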 The set was probably picked from earlier hits. Some of the results follow.
Log the outcome using a class from yes (active), no (inactive)

Consider the worked cases shown below.
{"line_notation": "Cc1ccc(S(=O)(=O)c2cc(Nc3ccccc3)ccc2O)cc1", "label_value": "yes"}
{"line_notation": "Nc1ccccc1Nc1cccc(C(F)(F)F)c1", "label_value": "yes"}
{"line_notation": "O=S(=O)(O)c1ccc(O)c2cc(Nc3ccccc3)ccc12", "label_value": "no"}
{"line_notation": "CC(=O)Nc1cccc2cc(O)ccc12", "label_value": "yes"}
{"line_notation": "Nc1ccccc1SSc1ccccc1N", "label_value": "no"}
{"line_notation": "Nc1ccc(Nc2ccccc2)c(Cl)c1", "label_value": "yes"}

Field: next molecule
stdin: So what was the verdict on CC(=O)C1=C(S(=O)(=O)c2ccc(C)cc2)CS(=O)(=O)C1 in this test?
stdout: no

----------
experiment: coupled detection enzyme interference, dose response, artefact control for MgcRacGAP inhibitor project, biochemical, coupled enzyme counter-screen (AID 624351); conditions: ADP Hunter coupled enzyme counter-screen, fluorescence, no MgcRacGAP; series mostly up to 80 µM;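 also: signal is the ADP detection kit reading of free GDP without any GAP enzyme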
Among all 2,400 compounds or so, about 1,400 (58%) were called active.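 How the source made its calls: active means inhibition of 30% or more at any tested dose; inconclusive means primary hits over the limit that were never retested; inactive means the rest.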 So high a share suggests a set chosen from earlier hits. Some of the results follow.
// one of active, inactive, no free text

Reference set (10 entries):
{"compound": "CCOc1ccccc1CN(CCc1ccc2c(c1)OCO2)Cc1ccccn1", "label_value": "inactive"}
{"compound": "COc1cc(/C=N/N2CCN(c3ccccc3OC)CC2)ccc1O", "label_value": "active"}
{"compound": "O=C(O)C1Nc2c(O)cc(Cl)c([N+](=O)[O-])c2C2C=CCC12 (stereo not drawn)", "label_value": "inactive"}
{"compound": "O=C(CNCc1ccccn1)Nc1cc(C(F)(F)F)ccc1N1CCOCC1", "label_value": "inactive"}
{"compound": "COc1ccc(-c2ncc3ccccn23)cc1OC", "label_value": "inactive"}
{"compound": "CCN1/C(=C/c2ccc3cc(C)ccc3[n+]2CC)Sc2cc(C)ccc21", "label_value": "inactive"}
{"compound": "N#Cc1ccc(OCC(=O)Nc2ccc(N3CCCC3)cc2)cc1", "label_value": "inactive"}
{"compound": "CSc1ccc(CN2CCC(C(=O)NCc3ccc(C)cc3)CC2)cc1", "label_value": "inactive"}
{"compound": "CCOCCCNCC(=O)NCC1CCCCC1", "label_value": "inactive"}
{"compound": "CCOc1ccccc1Oc1cn[nH]c1-c1ccc(O)cc1O", "label_value": "active"}

stdin: Check the results log: what was the call for Oc1ccc(-c2csc(-c3cccnc3)n2)c(O)c1 ?
stdout: active

stdin: Check the results log: what was the call for COc1cc(CN2CCN(C(=O)CC(C)C)CC2)cc(OC)c1O ?
stdout: inactive

stdin: Can you look up the reported call for COc1ccccc1N1CCN(CC(=O)c2ccc(F)cc2)CC1 for me?
stdout: inactive

stdin: Dear all, I need the recorded test outcome for Nc1cc(C(F)(F)F)ccc1N1CCOCC1 , thank you.
stdout: active

Reference source: PubChem BioAssay AID624351
